Target or system: T1, human serum albumin (human, UniProt P02768 25-609)
T1 construct: mature; Bought protein; biotinylated in the Octet and HTRF assays; also called HSA; HuSA
Method notes: SPR (Biacore), immobilised HSA, Affimer analyte
Experimental readout: koff (s⁻¹)
Only the number, expressed in s⁻¹, is required.

What value of koff has been recorded for this entry: AVA04-269 XT11 (designed binder) MIPRGLSEAKPATPEIQEIVDKVKPQLEEKTNETYGKLEAVQYKTQVLAKEYGPEEWWSTNYYIKVRAGDNKYMHLKVFNGPGDYEQVLIHADRVLTGYQVDKNKDDELTGFGGGGSGGGGSGGGGSGGGGSGGGGSGGGGSMIPRGLSEAKPATPEIQEIVDKVKPQLEEKTNETYGKLEAVQYKTQVLANFFQRRWPGSTNYYIKVRAGDNKYMHLKVFNGPWKFRNTDRGADRVLTGYQVDKNKDDELTGFHHHHHH
0.00234
